Provenance of the data: patent US20190359693A1

# tgt: hemagglutinin (HA) of influenza virus H1N1 A/Puerto Rico/8/34-MA (influenza A virus)
# protocol_summary: cell-based or functional assay
measured_parameter: neutralization titer (nM)

>>> reported_result("MD1211 (bispecific antibody) EVQLVESGGGLVQPGGSLRLSCAVSISIFDIYAMDWYRQAPGKQRDLVATSFRDGSTNYADSVKGRFTISRDNAKNTLYLQMNSLKPEDTAVYLCHVSLYRDPLGVAGGMGVYWGKGALVTVSSAAAGGGGSGGGGSGGGGSGGGGSGGGGSGGGGSGGGGSEVQLVESGGGLVQAGGSLKLSCAASGRTYAMGWFRQAPGKEREFVAHINALGTRTYYSDSVKGRFTISRDNAKNTEYLEMNNLKPEDTAVYYCTAQGQWRAAPVAVAAEYEFWGQGTQVTVSS")
9.9
>>> reported_result("MD1212 (VHH) EVQLVESGGGLVQPGGSLRLSCAVSISIFDIYAMDWYRQAPGKQRDLVATSFRDGSTNYADSVKGRFTISRDNAKNTLYLQMNSLKPEDTAVYLCHVSLYRDPLGVAGGMGVYWGKGALVTVSSAAAGGGGSGGGGSGGGGSGGGGSGGGGSGGGGSGGGGSEVQLVESGGGLVQPGGSLRLSCAVSISIFDIYAMDWYRQAPGKQRDLVATSFRDGSTNYADSVKGRFTISRDNAKNTLYLQMNSLKPEDTAVYLCHVSLYRDPLGVAGGMGVYWGKGALVTVSS")
11.7
>>> reported_result("MD1209 (VHH) EVQLVESGGGLVQAGGSLKLSCAASGRTYAMGWFRQAPGKEREFVAHINALGTRTYYSDSVKGRFTISRDNAKNTEYLEMNNLKPEDTAVYYCTAQGQWRAAPVAVAAEYEFWGQGTQVTVSSAAAGGGGSGGGGSGGGGSGGGGSGGGGSGGGGSGGGGSEVQLVESGGGLVQAGGSLKLSCAASGRTYAMGWFRQAPGKEREFVAHINALGTRTYYSDSVKGRFTISRDNAKNTEYLEMNNLKPEDTAVYYCTAQGQWRAAPVAVAAEYEFWGQGTQVTVSS")
221
